- SYSTEM_UNDER_TEST: CBL-B (Homo sapiens)
- Construct: GST
- Sequence (Q13191 whole entry): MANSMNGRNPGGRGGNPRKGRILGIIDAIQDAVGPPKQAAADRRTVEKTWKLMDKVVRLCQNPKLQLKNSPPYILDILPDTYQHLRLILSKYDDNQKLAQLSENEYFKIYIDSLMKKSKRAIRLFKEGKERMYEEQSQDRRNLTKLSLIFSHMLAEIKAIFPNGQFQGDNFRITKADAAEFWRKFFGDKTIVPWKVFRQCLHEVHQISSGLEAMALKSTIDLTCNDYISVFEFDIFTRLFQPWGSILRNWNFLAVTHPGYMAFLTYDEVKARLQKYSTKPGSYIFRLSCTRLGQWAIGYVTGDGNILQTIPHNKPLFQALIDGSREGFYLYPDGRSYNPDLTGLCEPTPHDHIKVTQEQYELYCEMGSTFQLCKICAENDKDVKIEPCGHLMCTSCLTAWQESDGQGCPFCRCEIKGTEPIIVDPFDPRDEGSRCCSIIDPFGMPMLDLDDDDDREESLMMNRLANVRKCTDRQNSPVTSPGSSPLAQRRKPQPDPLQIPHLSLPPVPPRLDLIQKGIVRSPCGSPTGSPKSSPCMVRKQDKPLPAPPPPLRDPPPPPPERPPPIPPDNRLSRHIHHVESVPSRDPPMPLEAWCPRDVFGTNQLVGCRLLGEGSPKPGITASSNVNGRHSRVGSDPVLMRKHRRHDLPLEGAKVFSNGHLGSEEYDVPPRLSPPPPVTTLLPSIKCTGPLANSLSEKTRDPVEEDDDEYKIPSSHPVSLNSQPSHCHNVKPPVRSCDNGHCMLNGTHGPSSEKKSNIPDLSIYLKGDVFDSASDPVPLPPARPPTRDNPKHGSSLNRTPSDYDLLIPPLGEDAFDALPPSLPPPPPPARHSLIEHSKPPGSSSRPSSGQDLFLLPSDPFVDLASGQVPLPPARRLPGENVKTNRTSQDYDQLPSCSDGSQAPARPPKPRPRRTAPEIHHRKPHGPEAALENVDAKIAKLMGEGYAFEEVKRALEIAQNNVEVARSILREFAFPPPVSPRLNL
- PROCEDURE_SUMMARY: CBL-B TR-FRET IC50 screening (E1/E2 ubiquitination, Biotin-Ubiquitin, Anti GST-Tb donor / Streptavidin-d2 acceptor)
- Assay type: biochemical
- STUDY_CONDITIONS: second part of Table 2 (head 'Patent Cmpd No / Updated Activity'); same CBL-B TR-FRET IC50 bins A-F; read-out: Updated Activity
pIC50: −log10 of the molar value.
PROPERTY: pIC50

Completed entries (count: 4):
Cn1cnnc1[C@H](c1cc(-c2cnn[nH]2)cc(-n2cc3c(C(F)(F)F)cccn3c2=O)c1)C1CCC1 ... 6.00 to 6.52
CC(=O)N1CC[C@H](c2cc(C(F)(F)F)c3cn(-c4cccc([C@H](c5nncn5C)C5CCC5)c4)c(=O)n3c2)C1 (single isomer, unassigned) ... > 7.00
CC(C)n1cnnc1[C@@H](c1cccc(-n2cc3c(C(F)(F)F)cc(CN4CCC[C@H](C)C4)cn3c2=O)c1)C1CCC1 (single isomer, unassigned) ... < 5.00
COC1CN([C@H](c2cccc(-n3cc4c(C(F)(F)F)cc(CN5CCC[C@H](C)C5)cn4c3=O)c2)c2nncn2C)C1 (single isomer, unassigned) ... < 5.00

Okay, now this compound:
What does the data say about its pIC50? Entry: C[C@H]1CCCN(Cc2cc(C(F)(F)F)c3cn(-c4cccc([C@H](c5nncn5C)C5(O)CCC5)c4)c(=O)n3c2)C1 (single isomer, unassigned)
> 7.00
